molecular target: S1P1 (Homo sapiens); assay: Receptor [35S] GTPγS Binding Assay, membranes from S1P1/CHO cells; assay type: biochemical; parameters: expressed in transfected cells; host or cells: S1P1/CHO cells; details: selectivity ratio calculated from Table B; * may be greater than reported value due to S1P3 assay limits
Counter-ions that a name gives are not always drawn.
Decide by S1P3/S1P1 GTPγS (ratio of S1P3 GTPγS EC50 to S1P1 GTPγS EC50): equal to or exceeding 1000 means rule met, less means rule not met.

Here's what some known entries look like.
# compound, category
measured = [
    ("Cc1ccc(-n2ncc(-c3nc(-c4ccc([C@H](O)CN5CCC[C@H](CC(=O)O)C5)cc4)no3)c2C(F)(F)F)nc1", "rule not met"),
    ("CCCc1c(-c2nc(-c3ccc(C(O)CN4CCCC(C(=O)N(CC)CC)C4)cc3)no2)noc1-c1ccccc1 (stereo not shown)", "rule not met"),
    ("Cl.O=C(O)C[C@H]1CCCN(C[C@@H](O)c2ccc(-c3noc(-c4cnn(-c5ccc(F)cn5)c4C(F)(F)F)n3)cc2)C1", "rule met"),
    ("O=C(O)C[C@H]1CCCN(C[C@@H](O)c2ccc(-c3noc(-c4cnn(-c5ccccc5Cl)c4C(F)(F)F)n3)cc2)C1 [Example 72, HCl]", "rule met"),
    ("Cc1nc(-c2ccccc2)sc1-c1nc(-c2ccc(C(O)CN3CCC[C@H](C(=O)O)C3)cc2)no1 (stereo partly shown)", "rule not met"),
    ("CC(O)(CN1CCC[C@H](C(=O)O)C1)c1ccc(-c2noc(-c3onc(-c4ccccc4)c3C(F)(F)F)n2)cc1 (stereo partly shown)", "rule not met"),
    ("O=C(O)C[C@H]1CCCN(C[C@@H](O)c2ccc(-c3noc(-c4cnn(C5CCCCC5)c4C(F)(F)F)n3)cc2)C1 [Example 59, HCl]", "rule met"),
    ("O=C(O)[C@H]1CCCCN1CC(O)c1ccc(-c2noc(-c3onc(-c4ccccc4)c3C(F)(F)F)n2)cc1 (stereo partly shown)", "rule met"),
    ("O=C(O)[C@H]1CCCN(C[C@@H](O)c2ccc(-c3noc(-c4cnn(C5CCCCC5)c4C(F)(F)F)n3)cc2)C1", "rule met"),
    ("CCCc1c(-c2nc(-c3ccc(CCN4CCC[C@H](C(=O)O)C4)cc3)no2)noc1-c1ccccc1 [Comparative Compound 119, reference compound]", "rule not met"),
]

Attention now turns to another entry.
Exam item: For this compound, is measured S1P3/S1P1 GTPγS (ratio of S1P3 GTPγS EC50 to S1P1 GTPγS EC50) 1000 or higher? O=C(O)[C@H]1CCCN(C[C@@H](O)c2ccc(-c3noc(-c4cnn(-c5ccc(C(F)(F)F)cn5)c4C(F)(F)F)n3)cc2)C1 [Example 98, HCl]
Marked response: rule met

----------
target: S1P1 (Homo sapiens, UniProt P21453); assay: Receptor [35S] GTPγS Binding Assay, membranes from S1P1/CHO cells; assay type: biochemical; set-up: expressed in transfected cells; host or cells: S1P1/CHO cells; conditions: selectivity ratio calculated from Table B; * may be greater than reported value due to S1P3 assay limits
Sequence (P21453 whole entry): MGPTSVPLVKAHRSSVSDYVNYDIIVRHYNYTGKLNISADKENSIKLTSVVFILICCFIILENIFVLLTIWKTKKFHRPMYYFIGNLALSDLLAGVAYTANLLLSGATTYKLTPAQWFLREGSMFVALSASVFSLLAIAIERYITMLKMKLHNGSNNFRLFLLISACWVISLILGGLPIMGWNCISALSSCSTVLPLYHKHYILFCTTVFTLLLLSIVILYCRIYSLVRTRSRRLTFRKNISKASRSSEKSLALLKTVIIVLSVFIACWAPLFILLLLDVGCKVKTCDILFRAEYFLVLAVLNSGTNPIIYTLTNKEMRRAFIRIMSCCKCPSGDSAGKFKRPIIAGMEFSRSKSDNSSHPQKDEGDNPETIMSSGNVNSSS
Counter-ions that a name gives are not always drawn.
readout.type: S1P3/S1P1 GTPγS (ratio of S1P3 GTPγS EC50 to S1P1 GTPγS EC50)

# compound, reported
measured = [
    ("O=C(O)[C@H]1CCCN(C[C@@H](O)c2ccc(-c3noc(-c4cnn(-c5ncc(Cl)cc5Cl)c4C(F)(F)F)n3)cc2)C1 [Example 100, HCl]", "≥ 4580*"),
    ("O=C(O)C[C@H]1CCCN(C[C@@H](O)c2ccc(-c3noc(-c4ncn(-c5ccc(Cl)cc5)c4C(F)(F)F)n3)cc2)C1", "≥ 2400*"),
    ("O=C(O)[C@H]1CCCN(CC(O)c2ccc(-c3noc(-c4ccc(-c5ccccn5)s4)n3)cc2)C1 (stereo partly drawn)", "≥ 170*"),
]

Form field S1P3/S1P1 GTPγS (ratio of S1P3 GTPγS EC50 to S1P1 GTPγS EC50), entry Cc1cccc(-c2noc(-c3nc(-c4ccc(C(O)CN5CCC[C@H](C(=O)O)C5)cc4)no3)c2C(F)(F)F)n1 (stereo partly drawn) : ≥ 910*

Form field S1P3/S1P1 GTPγS (ratio of S1P3 GTPγS EC50 to S1P1 GTPγS EC50), entry O=C(O)C[C@H]1CCCN(C[C@@H](O)c2ccc(-c3noc(-c4cnn(-c5ccc(Cl)cn5)c4C(F)(F)F)n3)cc2)C1 [Example 70, HCl] : 8800

Form field S1P3/S1P1 GTPγS (ratio of S1P3 GTPγS EC50 to S1P1 GTPγS EC50), entry O=C(O)C[C@H]1CCCN(C[C@@H](O)c2ccc(-c3noc(-c4cnn(-c5ccc(F)cc5F)c4C(F)(F)F)n3)cc2)C1 [Example 73, HCl] : 1030
